- ASSAYED_TARGET: T1, human GM-CSFRα-6His (human, UniProt P15509 23-320)
- T1 construct: pTT5-GMRa-6his (ECD), made in 293F cells; also called GMRah; GMRa-6his(ECD)
- T1 sequence: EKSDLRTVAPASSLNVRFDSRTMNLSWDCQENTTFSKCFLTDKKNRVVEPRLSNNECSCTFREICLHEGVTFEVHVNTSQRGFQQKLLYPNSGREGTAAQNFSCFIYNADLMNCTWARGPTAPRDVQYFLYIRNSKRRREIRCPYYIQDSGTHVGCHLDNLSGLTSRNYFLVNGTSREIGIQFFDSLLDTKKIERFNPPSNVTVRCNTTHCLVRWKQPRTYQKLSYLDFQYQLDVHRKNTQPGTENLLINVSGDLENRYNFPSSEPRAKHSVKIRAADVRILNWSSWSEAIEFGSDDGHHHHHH
- ASSAY: ELISA on human GM-CSFRα, antibodies as human IgG1; x axis 'Log Ab concentration', no unit
READOUT_KIND: binding result

For this binder ( E113-IgG1 (antibody, V domains shown, human IgG1, human kappa) VH: QMQLVQSGAEVKKPGASVKVSCKVSGYTLTELSIHWVRQAPGKGLEWMGGFDPEDGETIYAQKSQGRVTMTGDTSTDTAYLELSSLRSEDTALYYCATGRYTELFASYGFDYWGQGTLVTVSS VL: EIVMTQSPATLSLSPGERATLSCRASQSVSSYLAWYQQKPGQAPRLLIYGASSRATGIPDRFSGSGSGTDFTLTISRLEPEDFAVYYCQQYNNWPYTFGQGTKLEIK ), measured binding result is binds

For this binder ( E200a-IgG1 (antibody, V domains shown, human IgG1, human kappa) VH: QMQLVQSGAEVKKPGASVKVSCKVSGYTLTELPMHWVRQAPGKGLEWMGGFDPEDGETIYAQKFQGRVTMTGDTSTDTAYLELSSLRSEDTALYYCATGRYTIITTNYGFDYWGQGTLVTVSS VL: EIVMTQSPATLSLSPGERATLSCRASQSVSSYLAWYQQKPGQAPRLLIYGASSRATGIPDRFSGSGSGTDFTLTISRLEPEDFAVYYCQQYDNWPPTFGQGTKLEIK ), measured binding result is binds
